meta.source: the supplement of paper PMC11208160

# Experimental protocol: recombinant barcode read abundance after kanamycin selection (control-corrected) (log10(CPM+1)); higher = more efficient recombination; sequences stand for … in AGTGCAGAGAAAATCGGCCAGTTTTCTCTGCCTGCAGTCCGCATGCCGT…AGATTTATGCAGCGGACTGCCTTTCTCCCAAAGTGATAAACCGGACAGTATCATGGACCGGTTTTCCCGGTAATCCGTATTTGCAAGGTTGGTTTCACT; site = the 11-nt target
Rule: recombinant barcode read abundance (log10) of 0.1 or more gives Met; anything lower gives Not met.

Please review the entries below; each comes with its answer.
{"Chain": "TACAAGACTTGGGTTCTAACCTGTTGCGT (site TACAAGACTAC)", "Classification": "Met"}
{"Chain": "GCGGTGACTTGGGTTCTAACCTGTTGCCT (site ACGGTGACTAG)", "Classification": "Met"}
{"Chain": "TCTAACCCTTGGGTTCTAACCTGTTGCAT (site TCTAAACCTAT)", "Classification": "Not met"}

Here is another sequence to look at.
Can GTTGGCCCTTGGGTTCTAACCTGTTGCCT (site GCTGGCCCTAG) be said to have recombinant barcode read abundance (log10) at or above 0.1?
Met

---

# Experimental protocol: recombinant UMI read abundance after kanamycin selection (control-corrected) (log10(CPM+1)); higher = more efficient recombination; extreme values may be limits of the assay; sequences stand for … in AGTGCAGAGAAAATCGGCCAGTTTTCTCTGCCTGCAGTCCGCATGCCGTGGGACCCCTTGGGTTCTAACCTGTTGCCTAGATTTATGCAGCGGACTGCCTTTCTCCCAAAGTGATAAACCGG…AGGTTGGTTTCACT; site = the 11-nt donor
Exercise: state measured recombinant UMI read abundance (log10) for each of the sequences provided.
One number for each entry.

{"Chain": "TGCCGTACATGGACCGGTTTTCCCGGTAATCCGTATTTGCT (site GGCCGTACTAG)", "Reported result": 0}
{"Chain": "CCATTAGCATGGACCGGTTTTCCCGGTAATCCGTATTTGTG (site CCTTTAGCTCA)", "Reported result": 0.0119}

I need recombinant UMI read abundance (log10) for every entry listed below, if you could help.
1. GTATGCACATGGACCGGTTTTCCCGGTAATCCGTATTTGAA (site GTATGCACTTC)
2. AACCGTCCATGGACCGGTTTTCCCGGTAATCCGTATTTGAA (site AACCGTCCTCT)
3. CTCCCTACATGGACCGGTTTTCCCGGTAATCCGTATTTGAG (site CTCCCTACTCT)
4. TGCACCGCATGGACCGGTTTTCCCGGTAATCCGTATTTGCG (site TACACCGCTCG)
5. GGGGTGGCATGGACCGGTTTTCCCGGTAATCCGTATTTGGT (site GGAGTGGCTAC)

[0.0775, 0.0191, 0.248, 0.0133, 0.553]

I need recombinant UMI read abundance (log10) for every entry listed below, if you could help.
1. GAAGATTCATGGACCGGTTTTCCCGGTAATCCGTATTTGAT (site GAAGATTCTAT)
2. GCGATTCCATGGACCGGTTTTCCCGGTAATCCGTATTTGTA (site GCGATTCCTTA)
3. TCGTTTCCATGGACCGGTTTTCCCGGTAATCCGTATTTGTA (site TCGTTTCCTTA)
4. GTGGTCGCATGGACCGGTTTTCCCGGTAATCCGTATTTGCG (site GTCGTCGCTCG)
5. ACTAGTTCATGGACCGGTTTTCCCGGTAATCCGTATTTGGT (site ACTAGTCCTAC)

[2.48, 1.49, 1.36, 0.0116, 0.0335]

---

Exercise: state measured recombinant barcode read abundance (log10) for each of the sequences provided.
# Experimental protocol: recombinant barcode read abundance after kanamycin selection (control-corrected) (log10(CPM+1)); higher = more efficient recombination; sequences stand for … in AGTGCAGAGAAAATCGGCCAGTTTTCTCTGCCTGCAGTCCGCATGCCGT…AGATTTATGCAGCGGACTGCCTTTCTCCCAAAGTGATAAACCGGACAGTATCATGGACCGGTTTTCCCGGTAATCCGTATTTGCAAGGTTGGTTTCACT; site = the 11-nt target
Give bare numbers.

{"Chain": "CTCTTGTCTTGGGTTCTAACCTGTTGCCA (site CTCTTGTCTTG)", "Reported result": 0}
{"Chain": "GAGTTGCCTTGGGTTCTAACCTGTTGCGT (site GAGTTGCCTAC)", "Reported result": 1.68}
{"Chain": "GGAGATGCTTGGGTTCTAACCTGTTGCCT (site GGAGATGCTAG)", "Reported result": 1.74}
{"Chain": "AGCTGATCTTGGGTTCTAACCTGTTGCCT (site GGCTGATCTAG)", "Reported result": 0.147}

I need recombinant barcode read abundance (log10) for every entry listed below, if you could help.
1. TGTAGCACTTGGGTTCTAACCTGTTGCAC (site TGTCGCACTCT)
2. GTTTCTTCTTGGGTTCTAACCTGTTGCCT (site GGTTCTTCTAG)
3. CCACGGACTTGGGTTCTAACCTGTTGCCT (site CCAGGGACTAG)
4. GAAACGGCTTGGGTTCTAACCTGTTGCCT (site GAAAAGGCTAG)

1: 0.159; 2: 0.171; 3: 0.129; 4: 0.0884

---

# Experimental protocol: recombinant UMI read abundance after kanamycin selection (control-corrected) (log10(CPM+1)); higher = more efficient recombination; extreme values may be limits of the assay; sequences stand for … in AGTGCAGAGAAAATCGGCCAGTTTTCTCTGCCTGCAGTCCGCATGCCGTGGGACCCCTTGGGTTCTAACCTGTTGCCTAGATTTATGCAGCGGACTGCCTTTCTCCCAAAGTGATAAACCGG…AGGTTGGTTTCACT; site = the 11-nt donor
Readout kind: recombinant UMI read abundance (log10)
One number for each entry.

Previously resolved entries follow.
{"Chain": "GGGGGACCATGGACCGGTTTTCCCGGTAATCCGTATTTGCA (site GGGGTACCTTG)", "recombinant UMI read abundance (log10)": 0}
{"Chain": "CCCCCTACATGGACCGGTTTTCCCGGTAATCCGTATTTGAG (site CGCCCTACTCT)", "recombinant UMI read abundance (log10)": 0.0197}
{"Chain": "AATAATGCATGGACCGGTTTTCCCGGTAATCCGTATTTGGA (site AATGATGCTTC)", "recombinant UMI read abundance (log10)": 0.361}
{"Chain": "CCCTAGCCATGGACCGGTTTTCCCGGTAATCCGTATTTGTC (site CCCTAGCCTGG)", "recombinant UMI read abundance (log10)": 0}
{"Chain": "CATCTCGCATGGACCGGTTTTCCCGGTAATCCGTATTTGCA (site CATCTCGCTTG)", "recombinant UMI read abundance (log10)": 0.985}
{"Chain": "CGAGGAACATGGACCGGTTTTCCCGGTAATCCGTATTTGTT (site CGCGGAACTAA)", "recombinant UMI read abundance (log10)": 0.0367}
{"Chain": "CCGTTAGCATGGACCGGTTTTCCCGGTAATCCGTATTTGTG (site CCGTAAGCTCA)", "recombinant UMI read abundance (log10)": 0.00568}
{"Chain": "CCTTTCTCATGGACCGGTTTTCCCGGTAATCCGTATTTGGG (site CCGTTCTCTCC)", "recombinant UMI read abundance (log10)": 0.011}
{"Chain": "ATCTATCCATGGACCGGTTTTCCCGGTAATCCGTATTTGAC (site ATCTATGCTGT)", "recombinant UMI read abundance (log10)": 0}
{"Chain": "GTTGTTCCATGGACCGGTTTTCCCGGTAATCCGTATTTGAT (site GTTGTTCCTAG)", "recombinant UMI read abundance (log10)": 0}

I need recombinant UMI read abundance (log10) for every entry listed below, if you could help.
1. TCATACTCATGGACCGGTTTTCCCGGTAATCCGTATTTGTA (site TCATACTCTTT)
2. TTTGCGGCATGGACCGGTTTTCCCGGTAATCCGTATTTGCG (site TTTGCGGCTTG)
3. ACATCTCCATGGACCGGTTTTCCCGGTAATCCGTATTTGTG (site ACATCTGCTCA)
4. AGCCTTGCATGGACCGGTTTTCCCGGTAATCCGTATTTGTA (site AGCCTTGCTTA)
5. CTACGAACATGGACCGGTTTTCCCGGTAATCCGTATTTGGG (site CTACGAACTCC)
6. GTGGAGGCATGGACCGGTTTTCCCGGTAATCCGTATTTGGG (site GTGGAGGCTCA)

1: 0.299; 2: 0.0091; 3: 0.0416; 4: 0.019; 5: 1.11; 6: 0.238

I need recombinant UMI read abundance (log10) for every entry listed below, if you could help.
1. CTCCCTACATGGACCGGTTTTCCCGGTAATCCGTATTTGAA (site CTCCCTACTGT)
2. TCACGTACATGGACCGGTTTTCCCGGTAATCCGTATTTGAT (site TCACGTACTAT)

1. 0
2. 0.589
